Molecular target: MRGPRX4 (Homo sapiens)
Sequence (Q96LA9 whole entry): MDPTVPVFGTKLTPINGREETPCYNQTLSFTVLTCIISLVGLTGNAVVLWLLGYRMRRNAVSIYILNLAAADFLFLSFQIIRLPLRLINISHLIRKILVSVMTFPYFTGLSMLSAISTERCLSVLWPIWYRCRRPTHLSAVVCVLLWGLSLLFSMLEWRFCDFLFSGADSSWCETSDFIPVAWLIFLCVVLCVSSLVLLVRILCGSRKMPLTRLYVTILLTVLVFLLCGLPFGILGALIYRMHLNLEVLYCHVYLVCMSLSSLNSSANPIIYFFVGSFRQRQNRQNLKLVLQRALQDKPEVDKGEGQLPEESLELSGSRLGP
Test: MRGPRX4 activation, Fluo-8 Ca2+ FLIPR assay in HEK293T cells stably expressing MRGPRX4
Assay type: cell-based
Conditions: E3-9, Conc. (Log[M]) −5.0
Protocol: In some embodiments, cells were cultured in poly-D-Lys coated blacked walled, clear-bottom 96-well microplates. […] The concentration of solution should be determined according to the protocol settings and experimental needs (e.g., Log[M]=−4, −5, −6, −7, −8, and −9). […] A fluorescent signal baseline was measured using FLIPR®Tetra for 30 s. […] The fluorescent signal would be measured for another 150 s. Activity of each compound was calculated by the fluorescence change (dF/F0). […]
quantity: MRGPRX4 activation, Average
Reply briefly: the number, and no unit.

# count of solved cases: 4
CC[C@H]1[C@@H](O)[C@@H]2[C@H](CC[C@]3(C)[C@@H]([C@H](C)CCNC(=O)C(=O)NS(=O)(=O)c4cccs4)CC[C@@H]23)[C@@]2(C)CCCC[C@@H]12 ... 0.018
CC[C@H]1[C@@H](O)[C@@H]2[C@H](CC[C@]3(C)[C@@H]([C@H](C)CCC(=O)O)CC[C@@H]23)[C@@]2(C)CCC(F)(F)C[C@@H]12 ... 0.018
CC[C@H]1[C@@H](O)[C@@H]2[C@H](CC[C@]3(C)[C@@H]([C@H](C)CCNC(=O)C(=O)NS(=O)(=O)c4cc(F)ccc4F)CC[C@@H]23)[C@@]2(C)CCCC[C@@H]12 ... 0.018
CC[C@H]1[C@@H](O)[C@@H]2[C@H](CC[C@]3(C)[C@@H]([C@H](C)CCNC(=O)C(=O)NS(=O)(=O)c4ccc(C(C)(C)CF)cc4)CC[C@@H]23)[C@@]2(C)CCCC[C@@H]12 ... 0.016

// next item, MRGPRX4 activation, Average requested
Request: What value of MRGPRX4 activation, Average has been recorded for this entry: "CC[C@H]1[C@@H](O)[C@@H]2[C@H](CC[C@]3(C)[C@@H]([C@H](C)CCNS(=O)(=O)CC(C)C)CC[C@@H]23)[C@@]2(C)CCCC[C@@H]12"
Response: 0.011
